Biological target: RASA1-N SH2 domain (Homo sapiens, UniProt P20936)
Sequence (P20936 181-272 limits assumed): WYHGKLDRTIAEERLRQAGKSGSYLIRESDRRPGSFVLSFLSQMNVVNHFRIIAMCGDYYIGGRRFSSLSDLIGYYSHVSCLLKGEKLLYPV
Residues, ends and D or L forms follow the SMILES beside them.

- MOLECULE: "CC(C)C[C@H](NC(=O)[C@H](Cc1ccc(OP(=O)(O)O)cc1)NC(=O)[C@H](CCC(=O)O)NC(=O)[C@H](CCC(=O)O)NC(=O)[C@H](C)NC(=O)[C@@H](N)CC(=O)O)C(=O)N[C@H](C(=O)N1CCC[C@H]1C(=O)N[C@@H](CCC(N)=O)C(=O)N[C@@H](CCC(N)=O)C(=O)NCC(=O)N[C@@H](Cc1ccccc1)C(=O)N[C@@H](CC(=O)O)C(=O)O)C(C)C [ErbB2 1023 13-mer] (HELM PEPTIDE1{D.A.E.E.[O=C([C@H](Cc1ccc(OP(=O)(O)O)cc1)N[*:1])[*:2]].L.V.P.Q.Q.G.F.D}$$$$V2.0)"
  MEASURED TARGET: "RASA1-N SH2 domain (Homo sapiens, UniProt P20936)"
  Kd: "5.49 µM"
- MOLECULE: "CSCC[C@H](NC(=O)[C@H](Cc1ccc(OP(=O)(O)O)cc1)NC(=O)[C@H](CCC(=O)O)NC(=O)[C@H](Cc1ccc(O)cc1)NC(=O)[C@H](CC(=O)O)NC(=O)[C@@H](N)CCC(=O)O)C(=O)N[C@@H](CC(N)=O)C(=O)N[C@@H](CCCNC(=N)N)C(=O)N[C@@H](CCC(N)=O)C(=O)N[C@@H](CCCNC(=N)N)C(=O)N[C@@H](CC(=O)O)C(=O)NCC(=O)N[C@@H](CC(=O)O)C(=O)O [ErbB3 1262 13-mer] (HELM PEPTIDE1{E.D.Y.E.[O=C([C@H](Cc1ccc(OP(=O)(O)O)cc1)N[*:1])[*:2]].M.N.R.Q.R.D.G.D}$$$$V2.0)"
  MEASURED TARGET: "RASA1-N SH2 domain (Homo sapiens, UniProt P20936)"
  Kd: "9.06 µM"
